- Test system: Cavia porcellus
- testDescription: In vivo inhibitory effect on airway constriction induced by histamine 2-5 micro g/kg iv at 1 min after 10 mg/kg iv dose of compound
- Type: functional
Here, each record is paired with measured inhibition in vivo at 10 mg/kg data.
reportedEndpoint: inhibition in vivo at 10 mg/kg (%)

                                   compound  unitinfo  number
0      O=c1c2ccccc2c(-c2cccnc2)nn1CCn1ccnc1         %      97
1             O=C(O)/C=C/c1ccc(Cn2ccnc2)cc1         %       0
2           C=CCn1nc(-c2cccnc2)c2ccccc2c1=O         %     100
3  Cn1c(=O)c2[nH]cnc2n(C)c1=O.Cn1c(=O)c2[nH]cnc2n(C)c1=O.NCCN         %      86
